Record form. Attribute: refractive index. Fill in for each entry.
test: refractive index (Na D-line) (dimensionless); conditions: 308.15 K; 101.33 kPa; Liquid; Standard Abbe refractometry
Answers are plain numbers.

Known results for compounds:
>>> data_value("CCCCCc1c(C)cc(C)c[n+]1CC.O=S(=O)([N-]S(=O)(=O)C(F)(F)F)C(F)(F)F")
1.45787
>>> data_value("CCCCCc1c(C)cc(C)c[n+]1CCCC.O=S(=O)([N-]S(=O)(=O)C(F)(F)F)C(F)(F)F")
1.45714
>>> data_value("CCCCCC[n+]1cc(C)cc(C)c1C.O=S(=O)([N-]S(=O)(=O)C(F)(F)F)C(F)(F)F")
1.4615

We next turn to a different compound, shown below.
Which refractive index reading was recorded for the compound CCCCCC[n+]1cc(C)cc(C)c1CCCCC.O=S(=O)([N-]S(=O)(=O)C(F)(F)F)C(F)(F)F ?
1.45746

====

details: 338.15 K; 101.33 kPa; Liquid; Vibrating tube method
Record form. Attribute: mass density. Fill in for each entry.
Give bare numbers, in kg/m3.

>>> data_value("CCCCCc1c(C)cc(C)c[n+]1CCCC.O=S(=O)([N-]S(=O)(=O)C(F)(F)F)C(F)(F)F")
1254.01

I'm hoping you can list mass density for every molecule here, please.
1. CCCCCc1c(C)cc(C)c[n+]1CC.O=S(=O)([N-]S(=O)(=O)C(F)(F)F)C(F)(F)F
2. CCCCCC[n+]1cc(C)cc(C)c1CCCCC.O=S(=O)([N-]S(=O)(=O)C(F)(F)F)C(F)(F)F
3. CCCCCC[n+]1cc(C)cc(C)c1C.O=S(=O)([N-]S(=O)(=O)C(F)(F)F)C(F)(F)F

1: 1289.3; 2: 1220.07; 3: 1301.66

====

details: 323.15 K; 101.33 kPa; Liquid; Vibrating tube method
Recorded Metric: mass density (kg/m3)
One number for each entry, in kg/m3.

>>> data_value("CCCCCC[n+]1cc(C)cc(C)c1C.O=S(=O)([N-]S(=O)(=O)C(F)(F)F)C(F)(F)F")
1314.52
>>> data_value("CCCCCc1c(C)cc(C)c[n+]1CCCC.O=S(=O)([N-]S(=O)(=O)C(F)(F)F)C(F)(F)F")
1266.77

I'm hoping you can list mass density for every molecule here, please.
1. CCCCCC[n+]1cc(C)cc(C)c1CCCCC.O=S(=O)([N-]S(=O)(=O)C(F)(F)F)C(F)(F)F
2. CCCCCc1c(C)cc(C)c[n+]1CC.O=S(=O)([N-]S(=O)(=O)C(F)(F)F)C(F)(F)F

[1232.53, 1302.2]

Source listed as the NIST ThermoML archive (doi:10.1016/j.jct.2013.09.028).
